Entry source: paper PMC6895048

Molecular target: IDO1 (Homo sapiens)
Assay: Circular dichroism analysis of IDO1 enzyme
Set-up: made in house; host or cells: Escherichia coli M15 (pQE30 vector with pREP4 plasmid)
Conditions: compound 1 µM
REPORTED_METRIC: % of Secondary structural elements, Helix (%)

structure=O=C(N/C(Cc1ccc(O)cc1)=N\O)c1n[nH]nc1-c1ccc(F)c(F)c1 measurement_target="IDO1 (Homo sapiens)" reported_measurement=27.6
structure=CCOC(=O)c1n[nH]nc1-c1ccc(F)c(F)c1 measurement_target="IDO1 (Homo sapiens)" reported_measurement=30.2
structure=NC(=O)c1n[nH]nc1-c1ccc(F)c(F)c1 measurement_target="IDO1 (Homo sapiens)" reported_measurement=29.8
structure=NS(=O)(=O)NCCNC(=O)c1n[nH]nc1-c1ccc(F)c(F)c1 measurement_target="IDO1 (Homo sapiens)" reported_measurement=28

* * *

Biological target: purified human TDO enzyme (Homo sapiens, UniProt P48775)
Construct: 6xHis (N); made in house; host or cells: Escherichia coli BL21 (DE3) (pET 28a vector)
Sequence (P48775 whole entry): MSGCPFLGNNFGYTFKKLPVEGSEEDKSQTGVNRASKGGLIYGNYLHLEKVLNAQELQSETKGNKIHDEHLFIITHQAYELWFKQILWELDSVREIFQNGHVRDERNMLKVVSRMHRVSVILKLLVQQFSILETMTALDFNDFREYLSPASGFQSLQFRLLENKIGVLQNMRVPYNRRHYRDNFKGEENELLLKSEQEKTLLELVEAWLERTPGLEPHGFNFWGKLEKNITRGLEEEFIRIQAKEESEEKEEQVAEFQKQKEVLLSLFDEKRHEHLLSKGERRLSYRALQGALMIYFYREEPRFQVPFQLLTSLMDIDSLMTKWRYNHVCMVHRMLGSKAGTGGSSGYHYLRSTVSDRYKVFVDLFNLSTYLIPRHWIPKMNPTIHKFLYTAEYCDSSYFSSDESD
Assay: TDO inhibition assay by the spectrometric method
Type: biochemical
Details: spectrophotometric; 100 µM
REPORTED_METRIC: inhibition at 100 µM (%)

P = NS(=O)(=O)NCCNC(=O)c1n[nH]nc1-c1ccc(F)c(F)c1
Q = CCOC(=O)c1n[nH]nc1-c1ccccc1
Challenge: # argmax over inhibition at 100 µM for candidates P and Q Answer = label.
Response given: P

* * *

Target: IDO1 (Homo sapiens, UniProt P14902)
Sequence (P14902 whole entry): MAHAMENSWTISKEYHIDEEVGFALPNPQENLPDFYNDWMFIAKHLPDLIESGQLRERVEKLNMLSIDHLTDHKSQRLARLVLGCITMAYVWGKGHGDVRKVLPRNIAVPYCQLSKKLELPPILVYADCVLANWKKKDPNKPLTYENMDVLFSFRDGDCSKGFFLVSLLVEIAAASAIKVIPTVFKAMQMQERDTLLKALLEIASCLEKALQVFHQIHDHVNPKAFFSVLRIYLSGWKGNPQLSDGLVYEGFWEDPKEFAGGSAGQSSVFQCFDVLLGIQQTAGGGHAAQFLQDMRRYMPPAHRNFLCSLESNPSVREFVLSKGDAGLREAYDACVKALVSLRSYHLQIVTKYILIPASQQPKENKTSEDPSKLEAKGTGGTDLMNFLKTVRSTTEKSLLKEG
Assay: Kynurenine assay by HPLC analysis, IDO1
Assay type: biochemical
Set-up: made in house; host or cells: Escherichia coli M15 (pQE30 vector with pREP4 plasmid)
Conditions: HPLC; 32 nM
REPORTED_METRIC: inhibition at 0.032 µM (%)

Reference set (2 entries):
structure=NS(=O)(=O)NCCNC(=O)c1n[nH]nc1-c1ccc(Cl)c(Cl)c1 reported_measurement=33
structure=NC(=O)c1n[nH]nc1-c1ccccc1 reported_measurement=11

P = CCOC(=O)c1n[nH]nc1-c1ccccc1
Q = NS(=O)(=O)NCCNC(=O)c1n[nH]nc1-c1ccc(F)c(F)c1
Challenge: Please choose the item with the lower inhibition at 0.032 µM value from this pair: P and Q Answer = label.
Response given: Q

* * *

Biological target: TDO enzyme (Homo sapiens, UniProt P48775)
Construct: 6xHis (N); made in house; host or cells: Escherichia coli BL21 (DE3) (pET 28a vector)
Experiment: HPLC based TDO inhibition assay
Type: biochemical
Details: 160 nM
REPORTED_METRIC: inhibition at 0.16 µM (%)

Reference set (2 entries):
compound="CCOC(=O)c1n[nH]nc1-c1ccccc1 [Compound 2a]" units_of_measure=% reported_measurement=39
compound="NS(=O)(=O)NCCNC(=O)c1n[nH]nc1-c1ccc(F)c(F)c1 [Compound 4k]" units_of_measure=% reported_measurement=24

P = NC(=O)c1n[nH]nc1-c1ccccc1 [Compound 3a]
Q = NS(=O)(=O)NCCNC(=O)c1n[nH]nc1-c1ccc(Cl)c(Cl)c1 [Compound 4l]
Challenge: Please choose the item with the lower inhibition at 0.16 µM value from this pair: P and Q Answer = label.
Response given: P

* * *

Target: purified human TDO enzyme (Homo sapiens)
Construct: 6xHis (N); made in house; host or cells: Escherichia coli BL21 (DE3) (pET 28a vector)
Assay: TDO inhibition assay by the spectrometric method
Type: biochemical
Details: spectrophotometric; 800 nM
REPORTED_METRIC: % of Enzyme inhibition (TDO) (%)

A = NC(=O)c1n[nH]nc1-c1ccc(F)c(F)c1
B = NC(=O)c1n[nH]nc1-c1ccc(Cl)c(Cl)c1
Challenge: # argmax over % of Enzyme inhibition (TDO) for candidates A and B Answer = label.
Response given: B
(B: 20%, A: 14%)

a = O=C(N/C(Cc1ccc(O)cc1)=N\O)c1n[nH]nc1-c1ccc(F)c(F)c1
b = CCOC(=O)c1n[nH]nc1-c1ccc(Cl)c(Cl)c1
Challenge: Please choose the item with the lower % of Enzyme inhibition (TDO) value from this pair: a and b Answer = label.
Response given: a
(a: 14%, b: 25%)

I = CCOC(=O)c1n[nH]nc1-c1ccc(F)c(F)c1
II = CCOC(=O)c1n[nH]nc1-c1ccc(Cl)cc1
Challenge: Please choose the item with the lower % of Enzyme inhibition (TDO) value from this pair: I and II Answer = label.
Response given: I
(I: 12%, II: 23%)

* * *

Target: purified human TDO enzyme (Homo sapiens)
Construct: 6xHis (N); made in house; host or cells: Escherichia coli BL21 (DE3) (pET 28a vector)
Experiment: TDO inhibition assay by the spectrometric method
Type: biochemical
Conditions: spectrophotometric; 20 µM
REPORTED_METRIC: % of Enzyme inhibition (TDO) (%)

structure=O=C(O)c1n[nH]nc1-c1ccc(F)c(F)c1 units_of_measure=% reported_measurement=22

P = NC(=O)c1n[nH]nc1-c1ccc(Cl)cc1
Q = CCOC(=O)c1n[nH]nc1-c1ccc(F)c(F)c1
Challenge: # argmax over % of Enzyme inhibition (TDO) for candidates P and Q Answer = label.
Response given: P
(P: 35%, Q: 23%)

* * *

Target: purified human TDO enzyme (Homo sapiens, UniProt P48775)
Construct: 6xHis (N); made in house; host or cells: Escherichia coli BL21 (DE3) (pET 28a vector)
Assay: TDO inhibition assay by the spectrometric method
Format: biochemical
Settings: spectrophotometric; 4 µM
REPORTED_METRIC: % of Enzyme inhibition (TDO) (%)

structure=CCOC(=O)c1n[nH]nc1-c1ccc(Cl)c(Cl)c1 reported_measurement=30
structure=O=C(N/C(Cc1ccc(O)cc1)=N\O)c1n[nH]nc1-c1ccc(F)c(F)c1 reported_measurement=24
structure=NC(=O)c1n[nH]nc1-c1ccc(Cl)c(Cl)c1 reported_measurement=27

* * *

Biological target: purified human TDO enzyme (Homo sapiens)
Construct: 6xHis (N); made in house; host or cells: Escherichia coli BL21 (DE3) (pET 28a vector)
Test: TDO inhibition assay by the spectrometric method
Assay type: biochemical
Details: spectrophotometric; 100 µM
REPORTED_METRIC: % of Enzyme inhibition (TDO) (%)

Reference set (4 entries):
structure=NC(=O)c1n[nH]nc1-c1ccc(Cl)cc1 measurement_target="purified human TDO enzyme (Homo sapiens)" reported_metric="% of Enzyme inhibition (TDO)" reported_measurement=39
structure=O=C(O)c1n[nH]nc1-c1ccc(F)c(F)c1 measurement_target="purified human TDO enzyme (Homo sapiens)" reported_metric="% of Enzyme inhibition (TDO)" reported_measurement=30
structure=NC(=O)c1n[nH]nc1-c1ccc(F)c(F)c1 measurement_target="purified human TDO enzyme (Homo sapiens)" reported_metric="% of Enzyme inhibition (TDO)" reported_measurement=49
structure=CCOC(=O)c1n[nH]nc1-c1ccc(Cl)c(Cl)c1 measurement_target="purified human TDO enzyme (Homo sapiens)" reported_metric="% of Enzyme inhibition (TDO)" reported_measurement=53

P = CCOC(=O)c1n[nH]nc1-c1ccc(Cl)cc1
Q = CCOC(=O)c1n[nH]nc1-c1ccc(F)c(F)c1
Challenge: # argmax over % of Enzyme inhibition (TDO) for candidates P and Q Answer = label.
Response given: P
(P: 46%, Q: 28%)

* * *

Molecular target: TDO enzyme (Homo sapiens, UniProt P48775)
Construct: 6xHis (N); made in house; host or cells: Escherichia coli BL21 (DE3) (pET 28a vector)
Assay: HPLC based TDO inhibition assay
Assay type: biochemical
Conditions: 160 nM
REPORTED_METRIC: % Of inhibition for TDO enzyme (%)

compound="CCOC(=O)c1n[nH]nc1-c1ccc(Cl)c(Cl)c1 [Compound 2j]" reported_measurement=35
compound="O=C(O)c1n[nH]nc1-c1ccc(F)c(F)c1 [Compound 4a]" reported_measurement=18
compound="O=C(N/C(Cc1ccc(O)cc1)=N\\O)c1n[nH]nc1-c1ccc(F)c(F)c1 [Compound 4i]" reported_measurement=25

I = NC(=O)c1n[nH]nc1-c1ccc(F)c(F)c1 [Compound 3i]
II = CCOC(=O)c1n[nH]nc1-c1ccc(F)c(F)c1 [Compound 2i]
Challenge: Please choose the item with the lower % Of inhibition for TDO enzyme value from this pair: I and II Answer = label.
Response given: I
(I: 18%, II: 47%)

* * *

Molecular target: IDO1 (Homo sapiens, UniProt P14902)
Assay: Kynurenine assay by HPLC analysis, IDO1
Format: biochemical
Design: made in house; host or cells: Escherichia coli M15 (pQE30 vector with pREP4 plasmid)
Conditions: HPLC based IDO1 inhibition assay
pIC50: −log10 of the molar value.
REPORTED_METRIC: pIC50

structure=O=C(O)c1n[nH]nc1-c1ccc(F)c(F)c1 measurement_target="IDO1 (Homo sapiens, UniProt P14902)" reported_measurement=5.05
structure=NC(=O)c1n[nH]nc1-c1ccc(F)c(F)c1 measurement_target="IDO1 (Homo sapiens, UniProt P14902)" reported_measurement=6.92

I = NC(=O)c1n[nH]nc1-c1ccc(Cl)c(Cl)c1
II = CCOC(=O)c1n[nH]nc1-c1ccccc1
III = CCOC(=O)c1n[nH]nc1-c1ccc(Cl)c(Cl)c1
Challenge: Please list these in order of increasing pIC50. Thank you! Please list the labels according to the requested order.
Response given: II, III, I
(II: 5.55, III: 6.59, I: 7.00)
